experiment description: Luminescence activity assay of purified Gaussia luciferase mutants on coelenterazine derivative ZS2
Type: biochemical
Design: key: ratio of mutant luminescence intensity to wild-type Gaussia luciferase
particulars: Substrate ZS2 (Table 16)
Kindly state Activity of mutant relative to wild-type Gaussia luciferase without the signal peptide for each of the entries shown.
One number for each entry.

The following molecules have reported results that may help.
molecule: K66N E102D S103T E110G L124M V138E: Gaussia luciferase mutant (protein, SIGNAL (1)..(17), Gaussia luciferase mutant) MGVKVLFALICIAVAEAKPTENNEDFNIVAVASNFATTDLDADRGKLPGKKLPLEVLKEMEANARNAGCTRGCLICLSHIKCTPKMKKFIPGRCHTYEGDKDTAQGGIGGAIVDIPEIPGFKDMEPMEQFIAQVDLCEDCTTGCLKGLANVQCSDLLKKWLPQRCATFASKIQGQVDKIKGAGGD
experimental result: 0.471
--
molecule: F26R V29F A30D V31L S33G T37D L40A: Gaussia luciferase mutant (protein, SIGNAL (1)..(17), Gaussia luciferase mutant) MGVKVLFALICIAVAEAKPTENNEDRNIFDLAGNFADTDADADRGKLPGKKLPLEVLKEMEANARKAGCTRGCLICLSHIKCTPKMKKFIPGRCHTYEGDKESAQGGIGEAIVDIPEIPGFKDLEPMEQFIAQVDLCVDCTTGCLKGLANVQCSDLLKKWLPQRCATFASKIQGQVDKIKGAGGD
experimental result: 1.781

Q: # return recorded Activity of mutant relative to wild-type Gaussia luciferase without the signal peptide for entry Q163S T167S S170T G174N K178T: Gaussia luciferase mutant (protein, SIGNAL (1)..(17), Gaussia luciferase mutant) MGVKVLFALICIAVAEAKPTENNEDFNIVAVASNFATTDLDADRGKLPGKKLPLEVLKEMEANARKAGCTRGCLICLSHIKCTPKMKKFIPGRCHTYEGDKESAQGGIGEAIVDIPEIPGFKDLEPMEQFIAQVDLCVDCTTGCLKGLANVQCSDLLKKWLPSRCASFATKIQNQVDTIKGAGGD
Result: 2.603
